test system: P-glycoprotein (human MDR1); assay: in vitro; conditions: dog, MDCK-MDR1, pH 7.4
PROPERTY NAME: Papp B→A (×10⁻⁶ cm/s)

[[record]]
compound = "O=C(NC1c2cccc(O)c2CC1C(=O)O)c1ccc2[nH]cnc2c1 (centres unmarked)"
unit_of_measurement = "×10⁻⁶ cm/s"
measured_value = 0.5

[[record]]
compound = "O=C(NC1c2cccc(O)c2CC1C(=O)O)c1ccc2[nH]c(CO)nc2c1 (centres unmarked)"
unit_of_measurement = "×10⁻⁶ cm/s"
measured_value = 1.4


====

biological target: UniProt:P0DTD1; type: binding; conditions: PanDDA event map, 1 minus background density correction; crystal soaking of Mac1
PROPERTY NAME: 1-BDC (PanDDA)

[[record]]
compound = "Cn1ncc2ncnc(NS(=O)(=O)Cc3ccc(CC#N)cc3)c21"
assay_system = "UniProt:P0DTD1"
property_name = "1-BDC (PanDDA)"
measured_value = 0.31

[[record]]
compound = "COC(=O)CC1CN(c2ncnc3[nH]c4cc(F)ccc4c23)CCO1 (stereo not drawn)"
assay_system = "UniProt:P0DTD1"
property_name = "1-BDC (PanDDA)"
measured_value = 0.08

[[record]]
compound = "O=C(O)C1(F)CN(c2ncnc3[nH]c4cc(F)ccc4c23)CC12CCC2 (stereo not drawn)"
assay_system = "UniProt:P0DTD1"
property_name = "1-BDC (PanDDA)"
measured_value = 0.16

[[record]]
compound = "O=C(NC1c2cccc(O)c2CC1C(=O)O)c1ccc2[nH]ccc2c1 (stereo not drawn)"
assay_system = "UniProt:P0DTD1"
property_name = "1-BDC (PanDDA)"
measured_value = 0.22

[[record]]
compound = "CO[C@@H]1CN(c2ncnc3[nH]c4cc(F)ccc4c23)C[C@@H](CO)O1"
assay_system = "UniProt:P0DTD1"
property_name = "1-BDC (PanDDA)"
measured_value = 0.23

[[record]]
compound = "Cc1oc(C(N)=O)cc1S(=O)(=O)Nc1ccc(Br)c(C#N)c1"
assay_system = "UniProt:P0DTD1"
property_name = "1-BDC (PanDDA)"
measured_value = 0.26

[[record]]
compound = "c1ccc(CNc2ncnc3[nH]ccc23)nc1"
assay_system = "UniProt:P0DTD1"
property_name = "1-BDC (PanDDA)"
measured_value = 0.09

[[record]]
compound = "O=C(O)C1(F)CN(c2ncnc3[nH]c4cc(F)ccc4c23)CC1C1CC1 (stereo not drawn)"
assay_system = "UniProt:P0DTD1"
property_name = "1-BDC (PanDDA)"
measured_value = 0.12

[[record]]
compound = "O=C(NS(=O)(=O)Cc1ccc(Br)c(F)c1)c1cnn2ccccc12"
assay_system = "UniProt:P0DTD1"
property_name = "1-BDC (PanDDA)"
measured_value = 0.38

[[record]]
compound = "O=C(O)CC1CN(c2ncnc3[nH]c4ccccc4c23)CCO1 (stereo not drawn)"
assay_system = "UniProt:P0DTD1"
property_name = "1-BDC (PanDDA)"
measured_value = 0.06

[[record]]
compound = "CCNc1ncc(C(=O)NCCn2cnc(C(=O)O)c2)s1"
assay_system = "UniProt:P0DTD1"
property_name = "1-BDC (PanDDA)"
measured_value = 0.1

[[record]]
compound = "CNS(=O)(=O)c1cc(C(=O)N2CCc3nc(N)ncc3C2)co1"
assay_system = "UniProt:P0DTD1"
property_name = "1-BDC (PanDDA)"
measured_value = 0.06

[[record]]
compound = "O=C(O)CC(NC(=O)c1cc(F)cc2[nH]cnc12)c1ccc(Br)cc1 (stereo not drawn)"
assay_system = "UniProt:P0DTD1"
property_name = "1-BDC (PanDDA)"
measured_value = 0.29

[[record]]
compound = "O=C(O)CCC1CN(c2ncnc3[nH]c4cc(F)ccc4c23)CCO1 (stereo not drawn)"
assay_system = "UniProt:P0DTD1"
property_name = "1-BDC (PanDDA)"
measured_value = 0.16

[[record]]
compound = "O=C(O)C[C@@H]1CN(c2ncnc3[nH]c4cc(F)ccc4c23)C[C@H](CO)O1"
assay_system = "UniProt:P0DTD1"
property_name = "1-BDC (PanDDA)"
measured_value = 0.12

[[record]]
compound = "O=C(O)C1CN(c2ncnc3[nH]c4cc(F)ccc4c23)CC12CCC2 (stereo not drawn)"
assay_system = "UniProt:P0DTD1"
property_name = "1-BDC (PanDDA)"
measured_value = 0.17

[[record]]
compound = "Nc1nc(N2CC3(CCC3)C(F)(C(=O)O)C2)c2c(n1)[nH]c1cc(F)ccc12 (stereo not drawn)"
assay_system = "UniProt:P0DTD1"
property_name = "1-BDC (PanDDA)"
measured_value = 0.17

[[record]]
compound = "O=C(O)c1ccc(F)c(CNC(=O)c2ccc3[nH]ccc3c2)c1"
assay_system = "UniProt:P0DTD1"
property_name = "1-BDC (PanDDA)"
measured_value = 0.09

[[record]]
compound = "OCC1CN(c2ncnc3[nH]c4cc(F)ccc4c23)CC2(CCC2)O1 (stereo not drawn)"
assay_system = "UniProt:P0DTD1"
property_name = "1-BDC (PanDDA)"
measured_value = 0.07

[[record]]
compound = "COC(=O)C1(CO)CCN(c2ncnc3[nH]c4cc(F)ccc4c23)C1 (stereo not drawn)"
assay_system = "UniProt:P0DTD1"
property_name = "1-BDC (PanDDA)"
measured_value = 0.1

[[record]]
compound = "O=C(O)C(F)(F)F.O=C(O)C1CN(c2ncnc3[nH]c4ccccc4c23)CC12CCC2 (stereo not drawn)"
assay_system = "UniProt:P0DTD1"
property_name = "1-BDC (PanDDA)"
measured_value = 0.14

[[record]]
compound = "O[C@@H]1CC[C@H](Nc2ncnc3[nH]c4cc(F)ccc4c23)C1"
assay_system = "UniProt:P0DTD1"
property_name = "1-BDC (PanDDA)"
measured_value = 0.07

[[record]]
compound = "O=C(NCc1c(C(=O)O)[nH]c2ccccc12)c1ccc2[nH]cnc2c1"
assay_system = "UniProt:P0DTD1"
property_name = "1-BDC (PanDDA)"
measured_value = 0.19

[[record]]
compound = "O=C(O)C(O)C1CCCN(c2ncnc3[nH]c4cc(F)ccc4c23)C1 (stereo not drawn)"
assay_system = "UniProt:P0DTD1"
property_name = "1-BDC (PanDDA)"
measured_value = 0.24

[[record]]
compound = "O=C(O)C1CN(c2ncnc3[nH]c4cc(F)ccc4c23)CCC12CCC2 (stereo not drawn)"
assay_system = "UniProt:P0DTD1"
property_name = "1-BDC (PanDDA)"
measured_value = 0.11

[[record]]
compound = "Cc1oc(C(N)=O)cc1S(=O)(=O)Nc1cnc(Cl)c(C#N)c1"
assay_system = "UniProt:P0DTD1"
property_name = "1-BDC (PanDDA)"
measured_value = 0.16

[[record]]
compound = "O=C(NC1C=CC(C(=O)O)C1)c1ncnc2sccc12 (stereo not drawn)"
assay_system = "UniProt:P0DTD1"
property_name = "1-BDC (PanDDA)"
measured_value = 0.4

[[record]]
compound = "CS(=O)(=O)NC(=O)C1CN(c2ncnc3[nH]c4cc(F)ccc4c23)CCO1 (stereo not drawn)"
assay_system = "UniProt:P0DTD1"
property_name = "1-BDC (PanDDA)"
measured_value = 0.1

[[record]]
compound = "Nc1ccc(C(=O)OC2c3ccccc3CC2C(=O)O)c(O)c1 (stereo not drawn)"
assay_system = "UniProt:P0DTD1"
property_name = "1-BDC (PanDDA)"
measured_value = 0.37

[[record]]
compound = "O=C(O)[C@@H]1[C@@H]2CCN(c3ncnc4[nH]c5cc(F)ccc5c34)C[C@@H]21"
assay_system = "UniProt:P0DTD1"
property_name = "1-BDC (PanDDA)"
measured_value = 0.17

[[record]]
compound = "CC1(C)CN(c2ncnc3[nH]c4ccccc4c23)CC(CC(=O)O)O1 (stereo not drawn)"
assay_system = "UniProt:P0DTD1"
property_name = "1-BDC (PanDDA)"
measured_value = 0.05

[[record]]
compound = "O=C(O)C1(F)CN(c2ncnc3[nH]c4cc(Br)ccc4c23)CC12CCC2 (stereo not drawn)"
assay_system = "UniProt:P0DTD1"
property_name = "1-BDC (PanDDA)"
measured_value = 0.08

[[record]]
compound = "Nc1cc(NC(=O)NC2CC2)ccc1C(=O)NC1c2cccc(O)c2CC1C(=O)O (stereo not drawn)"
assay_system = "UniProt:P0DTD1"
property_name = "1-BDC (PanDDA)"
measured_value = 0.25

[[record]]
compound = "O=S1(=O)CCCC(Nc2ncnc3[nH]ccc23)C1 (stereo not drawn)"
assay_system = "UniProt:P0DTD1"
property_name = "1-BDC (PanDDA)"
measured_value = 0.13

[[record]]
compound = "O=C(NC1c2cccc(O)c2CC1C(=O)O)c1ccc(Nc2cccnc2)cc1 (stereo not drawn)"
assay_system = "UniProt:P0DTD1"
property_name = "1-BDC (PanDDA)"
measured_value = 0.1

[[record]]
compound = "O=S1(=O)CC(CNc2ncnc3[nH]c4cc(F)ccc4c23)C1"
assay_system = "UniProt:P0DTD1"
property_name = "1-BDC (PanDDA)"
measured_value = 0.1

